target: human eIF5-CTD (residues 232–431) (human, UniProt P55010 232-431); experiment: ITC
Sequence (P55010 232-431): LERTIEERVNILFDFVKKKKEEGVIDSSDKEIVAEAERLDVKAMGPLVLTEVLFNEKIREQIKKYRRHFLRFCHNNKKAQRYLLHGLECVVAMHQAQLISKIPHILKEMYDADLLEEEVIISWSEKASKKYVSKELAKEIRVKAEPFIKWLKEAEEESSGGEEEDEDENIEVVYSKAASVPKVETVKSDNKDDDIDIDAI
experimental readout: pKd
Bear in mind: pKd is minus log10 of a mol/L concentration; give just that figure.

Query: Reported pKd, binder human eIF2β-NTT (residues 1–191), His6-tagged (domain or fragment) MSGDEMIFDPTMSKKKKKKKKPFMLDEEGDTQTEETQPSETKEVEPEPTEDKDLEADEEDTRKKDASDDLDDLNFFNQKKKKKKTKKIFDIDEAEEGVKDLKIESDVQEPTEPEDDLDIMLGNKKKKKKNVKFPDEDEILEKDEALEDEDNKKDDGISFSNQTGPAWAGSERDYTYEELLNRVFNIMREKN : ____
Reply: 4.48

Query: Which measured pKd value corresponds to human eIF2β-K3 (K-box 3 with surrounding segments) (domain or fragment, UniProt P20042 106-173, looked up) DVQEPTEPEDDLDIMLGNKKKKKKNVKFPDEDEILEKDEALEDEDNKKDDGISFSNQTGPAWAGSERD ?
Reply: 5.33

Where these numbers come from: paper PMC12439599
